These measurements were taken from paper PMC7064531.

assay.system: T1, E6AP AZUL (amino-terminal zinc-binding domain of ubiquitin E3a ligase), amino acids 24 to 87 (human, UniProt Q05086 24-87)
T1 chain: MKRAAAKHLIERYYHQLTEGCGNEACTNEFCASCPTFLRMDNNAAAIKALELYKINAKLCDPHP
test.method.notes: ITC
metric: Kd (nM)

{"binder": "EEDDYDVMQDPEFLQSVLENLPGVDPNNEAIRNAMGSLASQATKD [hRpn10^322–366 peptide]", "metric": "Kd", "numeric.readout": 18.2}
